Protocol Details: AUC in rat at 2 mg/kg, po
Format: ADME, organism-based
Recorded Conditions: in vivo
Give measured AUC for each item. Keep answers brief.

Return reported AUC; argument: COc1ccc(F)c(-c2ccc(COc3cccc([C@@H](CC(=O)O)C4CC4)c3F)cc2[C@@H]2CCCC2(C)C)c1 2.43 µM·h

Form field: reported AUC of CC[C@H](CC(=O)O)c1cccc(OCc2ccc(-c3cc(OC)ccc3F)c(C3CCCC3(C)C)c2)c1F (single isomer, unassigned) 8.22 µM·h

Entry COc1ccc(F)c(-c2ccc(COc3cccc([C@@H](CC(=O)O)C4CC4)c3)cc2[C@@H]2CCCC2(C)C)c1 : reported AUC = ? 1.83 µM·h

Fill in: AUC of CC[C@H](CC(=O)O)c1cccc(OCc2ccc(-c3cc(OC)ccc3F)c([C@@H]3CCCC3(C)C)c2)c1 is ___ 1.74 µM·h

---

Exercise: state measured bioavailability for each of the molecules provided.
Protocol Details: Oral bioavailability in rat at 2 mg/kg
Format: ADME, organism-based
Recorded Conditions: in vivo
Give just the number in %; leave the unit off.

What value of bioavailability has been recorded for this entry: CC[C@H](CC(=O)O)c1cccc(OCc2ccc(-c3cc(OC)ccc3F)c(C3CCCC3(C)C)c2)c1F (single isomer, unassigned) 72

Which measured bioavailability value corresponds to COc1ccc(F)c(-c2ccc(COc3cccc([C@@H](CC(=O)O)C4CC4)c3F)cc2[C@@H]2CCCC2(C)C)c1 ? 32

Request the reported bioavailability associated with CC[C@H](CC(=O)O)c1cccc(OCc2ccc(-c3cc(OC)ccc3F)c([C@@H]3CCCC3(C)C)c2)c1 29

---

Protocol Details: Clearance in rat at 0.5 mg/kg, iv
Recorded Conditions: in vivo
Exercise: state measured clearance for each of the compounds provided.
Field: numeric (mL/min/kg). Do not append units.

Recorded clearance of CC[C@H](CC(=O)O)c1cccc(OCc2ccc(-c3cc(OC)ccc3F)c([C@@H]3CCCC3(C)C)c2)c1 , please. 11.2

Can you look up the measured clearance of COc1ccc(F)c(-c2ccc(COc3cccc([C@@H](CC(=O)O)C4CC4)c3F)cc2[C@@H]2CCCC2(C)C)c1 for me? 8.17

What does the data say about its clearance? Entry: COc1ccc(F)c(-c2ccc(COc3cccc([C@@H](CC(=O)O)C4CC4)c3)cc2[C@@H]2CCCC2(C)C)c1 12

Item under review: CC[C@H](CC(=O)O)c1cccc(OCc2ccc(-c3cc(OC)ccc3F)c(C3CCCC3(C)C)c2)c1F (single isomer, unassigned) . Reported clearance? 5.5

---

Protocol Details: Cmax in rat at 2 mg/kg, po
Assay type: ADME, organism-based
Set-up: dose 2 mg/kg, route oral
Recorded Conditions: in vivo
What Cmax was measured for each of the following?
Be sure to follow the number with its unit.

Value lookup for Cmax; key = COc1ccc(F)c(-c2ccc(COc3cccc([C@@H](CC(=O)O)C4CC4)c3F)cc2[C@@H]2CCCC2(C)C)c1 360 nM

So what's the measured Cmax for this one? CC[C@H](CC(=O)O)c1cccc(OCc2ccc(-c3cc(OC)ccc3F)c(C3CCCC3(C)C)c2)c1F (single isomer, unassigned) 1180 nM

So what's the measured Cmax for this one? CC[C@H](CC(=O)O)c1cccc(OCc2ccc(-c3cc(OC)ccc3F)c([C@@H]3CCCC3(C)C)c2)c1 370 nM

Name the recorded Cmax for COc1ccc(F)c(-c2ccc(COc3cccc([C@@H](CC(=O)O)C4CC4)c3)cc2[C@@H]2CCCC2(C)C)c1 . 250 nM

---

Protocol Details: Fraction unbound in dog plasma at 0.5 mg/kg, iv
Assay type: ADME, organism-based, Canis lupus familiaris
Metric: fraction unbound

I am curious: what fraction unbound value has been reported for CC[C@H](CC(=O)O)c1cccc(OCc2ccc(-c3cc(OC)ccc3F)c(C3CCCC3(C)C)c2)c1F (single isomer, unassigned) ? 0.034

---

Tested System: Free fatty acid receptor 1 (Homo sapiens, UniProt O14842)
Sequence (O14842 whole entry): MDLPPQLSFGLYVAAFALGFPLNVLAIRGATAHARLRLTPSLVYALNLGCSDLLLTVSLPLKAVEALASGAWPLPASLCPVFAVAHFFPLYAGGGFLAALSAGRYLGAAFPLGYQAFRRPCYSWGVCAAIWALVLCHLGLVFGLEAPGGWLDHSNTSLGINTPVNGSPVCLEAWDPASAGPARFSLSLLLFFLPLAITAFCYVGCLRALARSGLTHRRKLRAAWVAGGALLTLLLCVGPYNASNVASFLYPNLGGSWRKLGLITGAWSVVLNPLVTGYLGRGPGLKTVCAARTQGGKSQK
Protocol Details: Agonist activity at GPR40 (unknown origin) expressed in CHO cells incubated for 2 hrs measured over 20 secs in presence of human serum albumin by aequorin based luminescence assay relative to AM-1638
Format: functional, cell-based
Kindly state Efficacy for each of the entries shown.
Your answer should be a plain number; it is taken to be in %.

Which Efficacy reading was recorded for the compound COc1ccc(F)c(-c2ccc(COc3cccc(CCC(=O)O)c3)cc2[C@@H]2CCCC2(C)C)c1 ? 120

Which measured Efficacy value corresponds to COc1ccc(F)c(-c2ccc(COc3cccc([C@H](C)CC(=O)O)c3)cc2[C@@H]2CCCC2(C)C)c1 ? 106

Param item = COc1ccc(F)c(-c2ccc(COc3cccc([C@H](CC(=O)O)C4CC4)c3)cc2[C@@H]2CCCC2(C)C)c1 ; retrieve measured Efficacy. 89

Value lookup for Efficacy; key = COc1ccc(F)c(-c2ccc(COc3cccc([C@@H](CC(=O)O)C4CC4)c3)cc2[C@@H]2CCCC2(C)C)c1 101

Consider the compound shown here: CC[C@H](CC(=O)O)c1cc(OCc2ccc(-c3cc(OC)ccc3F)c([C@@H]3CCCC3(C)C)c2)ccc1F What is its recorded Efficacy? 100

May I ask what Efficacy has been recorded for CC[C@H](CC(=O)O)c1cccc(OCc2ccc(-c3cc(OC)ccc3F)c([C@@H]3CCCC3(C)C)c2)c1 ? 102

Param item = COc1ccc(F)c(-c2ccc(COc3cccc([C@@H](CC(=O)O)CC4CC4)c3)cc2[C@@H]2CCCC2(C)C)c1 ; retrieve measured Efficacy. 98

// returns reported Efficacy for input COc1ccc(F)c(-c2ccc(COc3cccc([C@@H](CC(=O)O)C4CCC4)c3)cc2[C@@H]2CCCC2(C)C)c1 100

Which Efficacy is reported for this compound? CC[C@H](CC(=O)O)c1ccc(F)c(OCc2ccc(-c3cc(OC)ccc3F)c(C3=CCCC3(C)C)c2)c1 82

Endpoint output: Efficacy of COc1ccc(F)c(-c2ccc(COc3cccc([C@@H](CC(=O)O)C4CC4)c3)cc2C2=CCCC2(C)C)c1 . Value? 100

// Efficacy lookup, key: CC[C@H](CC(=O)O)c1cc(F)cc(OCc2ccc(-c3cc(OC)ccc3F)c([C@@H]3CCCC3(C)C)c2)c1 105

# query: Efficacy of entry CC[C@@H](CC(=O)O)c1cccc(OCc2ccc(-c3cc(OC)ccc3F)c([C@@H]3CCCC3(C)C)c2)c1 76

Recorded Efficacy of CC[C@H](CC(=O)O)c1cccc(OCc2ccc(-c3cc(OC)ccc3F)c(C3CCCC3(C)C)c2)c1F (single isomer, unassigned) , please. 104

Any idea what Efficacy was measured for COc1ccc(F)c(-c2ccc(COc3cccc([C@@H](CC(=O)O)C4CC4)c3)cc2C2CCCC2(C)C)c1 (mixture of isomers) ? 97

Requested read-out: Efficacy. Entry: COc1ccc(F)c(-c2ccc(COc3cccc([C@@H](CC(=O)O)C4CC4)c3F)cc2[C@@H]2CCCC2(C)C)c1 100

Look at this compound and give its reported Efficacy. COc1ccc(F)c(-c2ccc(COc3cccc([C@@H](CC(=O)O)C4CC4)c3)cc2[C@H]2CCCC2(C)C)c1 100

Find the recorded Efficacy belonging to CCC[C@H](CC(=O)O)c1cccc(OCc2ccc(-c3cc(OC)ccc3F)c([C@@H]3CCCC3(C)C)c2)c1 and report it. 100

---

Protocol Details: Half life in cynomolgus monkey at 0.5 mg/kg, iv
Type: ADME, organism-based, Macaca fascicularis
Recorded Conditions: in vivo
Metric: half-life (h)
Number in h, nothing else.

So what does the record say about half-life for CC[C@H](CC(=O)O)c1cccc(OCc2ccc(-c3cc(OC)ccc3F)c(C3CCCC3(C)C)c2)c1F (single isomer, unassigned) ? 3.3

---

Protocol Details: Clearance in dog at 0.5 mg/kg, iv
Recorded Conditions: in vivo
Metric: clearance (mL/min/kg)
Entry rule: numbers only, all in mL/min/kg.

Which clearance reading was recorded for the compound CC[C@H](CC(=O)O)c1cccc(OCc2ccc(-c3cc(OC)ccc3F)c(C3CCCC3(C)C)c2)c1F (single isomer, unassigned) ? 3.5

---

Protocol Details: AUC in dog at 2 mg/kg, po
Assay type: ADME, organism-based, Canis lupus familiaris
Recorded Conditions: in vivo
Metric: AUC
The reply should consist of the numeric value with the unit placed after it.

What measured AUC goes with CC[C@H](CC(=O)O)c1cccc(OCc2ccc(-c3cc(OC)ccc3F)c(C3CCCC3(C)C)c2)c1F (single isomer, unassigned) ? 11.6 µM·h

---

Protocol Details: Half life in dog at 0.5 mg/kg, iv
Assay type: ADME, organism-based, Canis lupus familiaris
Recorded Conditions: in vivo
Metric: half-life
A complete answer gives the number followed by the unit.

Item under review: CC[C@H](CC(=O)O)c1cccc(OCc2ccc(-c3cc(OC)ccc3F)c(C3CCCC3(C)C)c2)c1F (single isomer, unassigned) . Reported half-life? 4.1 h

---

Protocol Details: Oral bioavailability in cynomolgus monkey at 10 mg/kg
Format: ADME, organism-based, Macaca fascicularis
Recorded Conditions: in vivo
Metric: bioavailability (%)
API: value field is a number in %; no unit string.

Field request: bioavailability | item: CC[C@H](CC(=O)O)c1cccc(OCc2ccc(-c3cc(OC)ccc3F)c(C3CCCC3(C)C)c2)c1F (single isomer, unassigned) 91

Name the recorded bioavailability for COc1ccc(F)c(-c2ccc(COc3cccc([C@@H](CC(=O)O)C4CC4)c3)cc2C2=CCCC2(C)C)c1 . 71
